Data provenance: patent US20110059095A1

Biological target: T1, Peptide C (human PAR-2), C-terminal biotinylated (Human)
T1 construct: also called Peptide C C-Term
T1 peptide: SLIGKVGGGGS-biotin
Assay: peptide ELISA
Where no end group is shown, it is not given here.
Endpoint Name: OD450

Q: GET /values?readout=OD450&item= H3M620N (antibody, V domains shown, chimeric: human variable, mouse constant domains) VH: EVQLVESGGNVVRPGGSLRLSCAASGFTFDDYGMTWVRQVPGKGLEWVSGINWNGGSTDYADSVKGRFTISRDNAKNSLYLQMNSLRAEDTALYYCARDKGFYGMDVWGQGTTVTVSS VL: DIVMTQSPDSLAVSLGERATINCKSSQNPLYNSNKKKYLAWYQQKPGQPPKLVIYWASTRESGVPDRFSGSGSGTDFTLTITSLQAEDVAVYYCQQYYSTPYTFGQGTKLEIK
A: 0 to 0.09 od

Q: GET /values?readout=OD450&item= H1M619N (antibody, V domains shown, chimeric: human variable, mouse constant domains) VH: EVQLVESGGGLVQAGRSLRLSCAASGFTFDDYAMHWVRQAPGKGLEWVSGISWNSGSRGYADSVKGRFTISRDNAKNSLHLQMYSLRAEDTALYYCAKENWSFDYWGQGTLVTVSS VL: DIVMTQTPLSSPVTLGQPASISCRSSQSLVHSDGNTYLSWLQQRPGQPPRLLIYKISYRFSGVPDRFSGSGAGTDFTLKISRVATEDVGVYYCMQATQLPYTFGQGTKLEIK
A: 0 to 0.09 od
